Target: UniProt P21589
Sequence (P21589 whole entry): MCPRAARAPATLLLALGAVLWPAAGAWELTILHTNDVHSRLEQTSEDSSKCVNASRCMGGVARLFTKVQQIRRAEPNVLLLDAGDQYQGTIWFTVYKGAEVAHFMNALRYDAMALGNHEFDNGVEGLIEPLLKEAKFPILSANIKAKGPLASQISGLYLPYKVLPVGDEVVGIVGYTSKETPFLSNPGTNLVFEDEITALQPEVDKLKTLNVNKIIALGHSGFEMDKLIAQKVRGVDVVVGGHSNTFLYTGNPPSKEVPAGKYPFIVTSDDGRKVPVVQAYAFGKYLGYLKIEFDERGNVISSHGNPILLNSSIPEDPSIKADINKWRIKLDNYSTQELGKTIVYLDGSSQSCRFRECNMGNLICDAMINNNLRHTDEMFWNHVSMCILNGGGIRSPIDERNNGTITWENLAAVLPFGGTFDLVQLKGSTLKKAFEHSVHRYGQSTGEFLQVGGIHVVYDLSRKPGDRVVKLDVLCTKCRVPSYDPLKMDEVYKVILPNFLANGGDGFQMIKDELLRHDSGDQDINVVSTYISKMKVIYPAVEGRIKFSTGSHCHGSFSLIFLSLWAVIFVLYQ
Test: Inhibition of native CD73 in human MDA-MB-231 cell membrane preparations [3H]AMP as substrate incubated for 25 mins by scintillation counting method
Type: cell membranes
Quantity: Ki (µM)

INSERT INTO results (smiles, quantity, meas_value) VALUES
  ('NNc1nc(N)c2ncn([C@@H]3O[C@H](COP(=O)(O)CP(=O)(O)O)[C@@H](O)[C@H]3O)c2n1', 'Ki', 0.0154),
  ('Nc1nc(N2CCNCC2)nc2c1ncn2[C@@H]1O[C@H](COP(=O)(O)CP(=O)(O)O)[C@@H](O)[C@H]1O', 'Ki', 0.238),
  ('Nc1nc(Cl)nc2c1ncn2[C@@H]1O[C@H](COP(=O)(O)CP(=O)(O)O)[C@@H](O)[C@H]1O', 'Ki', 0.00457),
  ('Nc1nc(SCCC2CCCCC2)nc2c1ncn2[C@@H]1O[C@H](COP(=O)(O)CP(=O)(O)O)[C@@H](O)[C@H]1O', 'Ki', 0.0491),
  ('Nc1nc2c(ncn2[C@@H]2O[C@H](COP(=O)(O)CP(=O)(O)O)[C@@H](O)[C@H]2O)c(=O)[nH]1', 'Ki', 0.255),
  ('Nc1nc(I)nc2c1ncn2[C@@H]1O[C@H](COP(=O)(O)CP(=O)(O)O)[C@@H](O)[C@H]1O', 'Ki', 0.00333),
  ('Nc1nc(Cl)c2ncn([C@@H]3O[C@H](COP(=O)(O)CP(=O)(O)O)[C@@H](O)[C@H]3O)c2n1', 'Ki', 0.0322),
  ('C=CCSc1nc(N)c2ncn([C@@H]3O[C@H](COP(=O)(O)CP(=O)(O)O)[C@@H](O)[C@H]3O)c2n1', 'Ki', 0.0654),
  ('Nc1ncnc2c1ncn2[C@@H]1O[C@H](COP(=O)(O)CP(=O)(O)O)[C@@H](O)[C@H]1O', 'Ki', 0.207),
  ('Nc1nc(N)c2ncn([C@@H]3O[C@H](COP(=O)(O)CP(=O)(O)O)[C@@H](O)[C@H]3O)c2n1', 'Ki', 0.0357);

====

Target: P2Y purinoceptor 1 (Homo sapiens) (UniProt P47900)
Sequence (P47900 whole entry): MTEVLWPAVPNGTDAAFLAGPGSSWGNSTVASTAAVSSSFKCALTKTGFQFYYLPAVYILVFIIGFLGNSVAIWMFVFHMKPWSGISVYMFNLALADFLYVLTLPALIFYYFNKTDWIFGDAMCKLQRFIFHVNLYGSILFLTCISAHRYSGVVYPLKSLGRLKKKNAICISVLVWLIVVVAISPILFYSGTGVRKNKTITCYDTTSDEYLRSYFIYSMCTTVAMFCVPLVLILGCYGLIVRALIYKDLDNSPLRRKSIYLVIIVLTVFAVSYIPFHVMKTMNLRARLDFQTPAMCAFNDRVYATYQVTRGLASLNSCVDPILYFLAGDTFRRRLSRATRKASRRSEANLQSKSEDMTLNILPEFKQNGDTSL
Assay: Activation of recombinant human P2Y1 receptor expressed in human 1321N1 cells assessed as stimulation of calcium mobilization at 10 uM by fluorescence based assay
Format: functional, cell-based
Activity calls are given as the source filed them. The calls are words filed in the database; no cut-off is given here.
Outcome codes: active, inactive

INSERT INTO measurements (smiles, target_entity, assigned_category) VALUES
  ('Nc1nc(SCCC2CCCCC2)nc2c1ncn2[C@@H]1O[C@H](COP(=O)(O)CP(=O)(O)O)[C@@H](O)[C@H]1O', 'P2Y purinoceptor 1 (Homo sapiens) (UniProt P47900)', 'inactive'),
  ('Nc1nc(Cl)nc2c1ncn2[C@@H]1O[C@H](COP(=O)(O)CP(=O)(O)O)[C@@H](O)[C@H]1O', 'P2Y purinoceptor 1 (Homo sapiens) (UniProt P47900)', 'inactive'),
  ('Nc1nc(Cl)c2ncn([C@@H]3O[C@H](COP(=O)(O)CP(=O)(O)O)[C@@H](O)[C@H]3O)c2n1', 'P2Y purinoceptor 1 (Homo sapiens) (UniProt P47900)', 'inactive'),
  ('Nc1ncnc2c1ncn2[C@@H]1O[C@H](COP(=O)(O)CP(=O)(O)O)[C@@H](O)[C@H]1O', 'P2Y purinoceptor 1 (Homo sapiens) (UniProt P47900)', 'active'),
  ('Nc1ncnc2c1ncn2[C@@H]1O[C@H](COP(=O)(O)OP(=O)(O)O)[C@@H](O)[C@H]1O', 'P2Y purinoceptor 1 (Homo sapiens) (UniProt P47900)', 'active');
